test: recombinant barcode read abundance after kanamycin selection (control-corrected) (log10(CPM+1)); higher = more efficient recombination; sequences stand for … in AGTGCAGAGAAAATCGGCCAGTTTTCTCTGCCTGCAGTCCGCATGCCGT…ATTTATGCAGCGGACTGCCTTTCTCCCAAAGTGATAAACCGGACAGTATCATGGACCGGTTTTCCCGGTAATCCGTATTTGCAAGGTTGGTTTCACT; site = the 11-nt target
RESULT TYPE: recombinant barcode read abundance (log10)
Lab note: record just the number, no unit beside it.

Worked examples, 3 sequences total:
1) GCGGGACTGTGGGTTCTAACCTGTTGCCTAG [GCGGGACCTAG_LTGcore_TG_RTGcore_CT] (site GCGGGACCTAG) (LTG core: TG, RTG core: CT); 0.316
2) CATATTACTTGGGTTCTAACCTGTTGCCTTG [CATATTACTAG_LTGcore_CT_RTGcore_CA] (site CATATTACTAG) (LTG core: CT, RTG core: CA); 0.214
3) AGGCGGGGGTGGGTTCTAACCTGTTGCGGAG [AGGCGGGCTCC_LTGcore_GG_RTGcore_CT] (site AGGCGGGCTCC) (LTG core: GG, RTG core: CT); 0.101

Any idea what its recombinant barcode read abundance (log10) is? The sequence is TCTACCCCTTGGGTTCTAACCTGTTGCTGTA [TCTACCCCTCA_LTGcore_CT_RTGcore_TA] (site TCTACCCCTCA) (LTG core: CT, RTG core: TA)
0.124

Any idea what its recombinant barcode read abundance (log10) is? The sequence is ACGGGACAGTGGGTTCTAACCTGTTGCAGAG [ACGGGACCTCT_LTGcore_AG_RTGcore_CT] (site ACGGGACCTCT) (LTG core: AG, RTG core: CT)
0.111

###

test: recombinant UMI read abundance after kanamycin selection (control-corrected) (log10(CPM+1)); higher = more efficient recombination; extreme values may be limits of the assay; sequences stand for … in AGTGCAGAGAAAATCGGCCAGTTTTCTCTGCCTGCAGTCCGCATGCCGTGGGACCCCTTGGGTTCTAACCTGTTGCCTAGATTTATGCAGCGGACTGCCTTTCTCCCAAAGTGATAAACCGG…AGGTTGGTTTCACT; site = the 11-nt donor
Listed next: entries and their corresponding recombinant UMI read abundance (log10).
Lab note: record just the number, no unit beside it.

Worked examples, 2 sequences total:
1) AAATTCCCATGGACCGGTTTTCCCGGTAATCCGTATTTGCT (site TAATTCCCTAG); 1.08
2) GGTTATCCATGGACCGGTTTTCCCGGTAATCCGTATTTGCT (site GTTTATCCTAG); 0

Any idea what its recombinant UMI read abundance (log10) is? The sequence is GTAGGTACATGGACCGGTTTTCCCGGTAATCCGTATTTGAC (site TTAGGTACTGT)
1.65

Any idea what its recombinant UMI read abundance (log10) is? The sequence is CGGAAGACATGGACCGGTTTTCCCGGTAATCCGTATTTGCA (site AGGAAGACTTG)
0.742

Any idea what its recombinant UMI read abundance (log10) is? The sequence is TAGCCTTCATGGACCGGTTTTCCCGGTAATCCGTATTTGGC (site TAGCCTTCTAC)
0.00487

###

experiment: recombinant UMI read abundance after kanamycin selection (control-corrected) (log10(CPM+1)); higher = more efficient recombination; extreme values may be limits of the assay; sequences stand for … in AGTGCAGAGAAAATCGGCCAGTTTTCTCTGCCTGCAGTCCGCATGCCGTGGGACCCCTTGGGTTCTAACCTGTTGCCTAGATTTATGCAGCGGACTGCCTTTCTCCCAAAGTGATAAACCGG…AGGTTGGTTTCACT; site = the 11-nt donor
RESULT TYPE: recombinant UMI read abundance (log10)

Worked examples, 2 sequences total:
1. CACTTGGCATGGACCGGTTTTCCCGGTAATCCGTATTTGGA (site CGCTTGGCTTC); 0.439
2. GTAAGCGCATGGACCGGTTTTCCCGGTAATCCGTATTTGGC (site GTAAGCGCTGC); 3.26

Any idea what its recombinant UMI read abundance (log10) is? The sequence is TCATTTACATGGACCGGTTTTCCCGGTAATCCGTATTTGGA (site TCATTTACTTC)
0.164

Any idea what its recombinant UMI read abundance (log10) is? The sequence is GTTGTTCCATGGACCGGTTTTCCCGGTAATCCGTATTTGGC (site GTTGTTCCTGC)
0

Any idea what its recombinant UMI read abundance (log10) is? The sequence is TCGGACTCATGGACCGGTTTTCCCGGTAATCCGTATTTGTT (site TCGGACTCTAA)
3.01

Any idea what its recombinant UMI read abundance (log10) is? The sequence is CAAACAGCATGGACCGGTTTTCCCGGTAATCCGTATTTGCT (site CAACCAGCTAG)
0.00434

Any idea what its recombinant UMI read abundance (log10) is? The sequence is AACCGGCCATGGACCGGTTTTCCCGGTAATCCGTATTTGAT (site AACCGGCCTAT)
0.016

Any idea what its recombinant UMI read abundance (log10) is? The sequence is ACGAAAACATGGACCGGTTTTCCCGGTAATCCGTATTTGCA (site ACGAAAACTTG)
2.73

Any idea what its recombinant UMI read abundance (log10) is? The sequence is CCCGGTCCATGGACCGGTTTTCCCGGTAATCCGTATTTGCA (site CCCGGTCCTTT)
0.0121

###

test: recombinant barcode read abundance after kanamycin selection (control-corrected) (log10(CPM+1)); higher = more efficient recombination; sequences stand for … in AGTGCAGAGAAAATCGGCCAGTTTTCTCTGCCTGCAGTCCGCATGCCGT…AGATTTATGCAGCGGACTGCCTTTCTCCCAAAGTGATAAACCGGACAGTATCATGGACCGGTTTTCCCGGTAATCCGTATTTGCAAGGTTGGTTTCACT; site = the 11-nt target
Outcome label depends on recombinant barcode read abundance (log10) relative to 0.5: at/above gives true (1), below gives false (0).

Worked examples follow.
1. AGGGAATCTTGGGTTCTAACCTGTTGCCT (site AGTGAATCTAG); false (0)
2. CTTCAGCCTTGGGTTCTAACCTGTTGCCT (site CTTCAACCTAG); true (1)
3. TTCTGAGCTTGGGTTCTAACCTGTTGCCT (site TTCTGCGCTAG); false (0)
4. TCCAAGCCTTGGGTTCTAACCTGTTGCAG (site TCCAAACCTCT); true (1)
5. AGGGATACTTGGGTTCTAACCTGTTGCGT (site ATGGATACTAC); true (1)

# bool: recombinant barcode read abundance (log10) of GTTTCTTCTTGGGTTCTAACCTGTTGCCT (site GCTTCTTCTAG) >= 0.5
false (0)

# bool: recombinant barcode read abundance (log10) of ATGGACACTTGGGTTCTAACCTGTTGCGT (site ATGGACACTAC) >= 0.5
true (1)

# bool: recombinant barcode read abundance (log10) of TAAATCCCTTGGGTTCTAACCTGTTGCGA (site ACGGAATCTCG) >= 0.5
false (0)

# bool: recombinant barcode read abundance (log10) of CGAGCTCCTTGGGTTCTAACCTGTTGCTT (site CGAGCTCCTAA) >= 0.5
false (0)

###

assay: recombinant UMI read abundance after kanamycin selection (control-corrected) (log10(CPM+1)); higher = more efficient recombination; extreme values may be limits of the assay; sequences stand for … in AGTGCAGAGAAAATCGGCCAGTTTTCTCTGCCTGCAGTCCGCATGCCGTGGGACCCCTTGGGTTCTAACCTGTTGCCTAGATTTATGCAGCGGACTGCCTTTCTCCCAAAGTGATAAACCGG…AGGTTGGTTTCACT; site = the 11-nt donor
Listed next: entries and their corresponding recombinant UMI read abundance (log10).

Any idea what its recombinant UMI read abundance (log10) is? The sequence is CGCAGTCCATGGACCGGTTTTCCCGGTAATCCGTATTTGAG (site CGCAGTCCTCT)
0.438

Any idea what its recombinant UMI read abundance (log10) is? The sequence is ACTAGACCATGGACCGGTTTTCCCGGTAATCCGTATTTGAG (site ACTAGAGCTCT)
0.0203

###

experiment: recombinant barcode read abundance after kanamycin selection (control-corrected) (log10(CPM+1)); higher = more efficient recombination; sequences stand for … in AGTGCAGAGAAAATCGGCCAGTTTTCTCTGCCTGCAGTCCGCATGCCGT…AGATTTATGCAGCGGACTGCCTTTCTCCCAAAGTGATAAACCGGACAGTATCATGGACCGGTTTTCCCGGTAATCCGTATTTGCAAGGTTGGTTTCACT; site = the 11-nt target
Listed next: entries and their corresponding recombinant barcode read abundance (log10).
Lab note: record just the number, no unit beside it.

Any idea what its recombinant barcode read abundance (log10) is? The sequence is TCCTAGTCTTGGGTTCTAACCTGTTGCCA (site TCCTAGTCTTG)
0.137

Any idea what its recombinant barcode read abundance (log10) is? The sequence is TCGATGTCTTGGGTTCTAACCTGTTGCCT (site TCGATGTCTAG)
0.706
